experimental.system: D(2) dopamine receptor (Rattus norvegicus, UniProt P61169)
Sequence (P61169 whole entry): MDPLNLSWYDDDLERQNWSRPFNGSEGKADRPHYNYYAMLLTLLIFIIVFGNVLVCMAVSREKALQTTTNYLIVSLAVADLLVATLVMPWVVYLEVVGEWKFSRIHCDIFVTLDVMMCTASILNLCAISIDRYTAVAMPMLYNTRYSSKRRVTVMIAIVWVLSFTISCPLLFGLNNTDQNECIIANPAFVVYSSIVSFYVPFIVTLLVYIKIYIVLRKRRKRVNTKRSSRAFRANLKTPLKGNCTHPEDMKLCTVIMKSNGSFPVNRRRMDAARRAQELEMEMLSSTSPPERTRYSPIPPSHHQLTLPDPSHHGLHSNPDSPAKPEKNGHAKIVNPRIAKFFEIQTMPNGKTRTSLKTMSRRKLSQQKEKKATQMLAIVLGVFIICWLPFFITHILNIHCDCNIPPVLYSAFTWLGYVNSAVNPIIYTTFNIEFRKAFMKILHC
measurement.notes: Binding affinity at Dopamine receptor D2 in rat corpus striatum by displacing [3H]-spiperone.
pIC50: −log10 of the molar value.
measured.metric: pIC50

Below, each entry is followed by its recorded pIC50 result.
compound: CC1(c2ccccc2)CC(=O)N(CCCCN2CCN(c3ncccn3)CC2)C1=O.Cl (stereo not given)
experimental.system: D(2) dopamine receptor (Rattus norvegicus, UniProt P61169)
measured.metric: pIC50
observed.value: < 6.00
//
compound: Cl.N#Cc1cccnc1N1CCN(CCCCN2C(=O)CC3(CCCc4ccccc43)C2=O)CC1 (stereo not given)
experimental.system: D(2) dopamine receptor (Rattus norvegicus, UniProt P61169)
measured.metric: pIC50
observed.value: 6.51

Input: Look up D(2) dopamine receptor (Rattus norvegicus, UniProt P61169) data: pIC50 of Cl.O=C1CC2(CCCc3ccccc32)C(=O)N1CCCCN1CCN(c2ncccn2)CC1 (stereo not given) , then report it.
Output: < 6.00

Input: Look up D(2) dopamine receptor (Rattus norvegicus, UniProt P61169) data: pIC50 of Cl.O=C1C2CC=CCC2C(=O)N1CCCCN1CCN(c2ncccn2)CC1 (stereo not given) , then report it.
Output: < 6.00

Input: Look up D(2) dopamine receptor (Rattus norvegicus, UniProt P61169) data: pIC50 of O=C1CC(c2ccccc2)(c2ccccc2)C(=O)N1CCCCN1CCN(c2ncccn2)CC1 , then report it.
Output: < 6.00

* * *

experimental.system: D(2) dopamine receptor (Rattus norvegicus)
measurement.notes: Binding affinity at Dopamine receptor D2 in rat corpus striatum by displacing [3H]-spiperone.
pIC50: −log10 of the molar value.
measured.metric: pIC50

compound: Cl.N#Cc1cccnc1N1CCN(CCCCN2C(=O)c3ccc([N+](=O)[O-])cc3C2=O)CC1
experimental.system: D(2) dopamine receptor (Rattus norvegicus)
observed.value: < 6.00

Input: Specify measured pIC50 for CC1(c2ccc(F)cc2)CC(=O)N(CCCCN2CCN(c3ncccc3C#N)CC2)C1=O (stereo not given) .
Output: 6.15

Input: Specify measured pIC50 for CC1(c2ccc(F)cc2)CC(=O)N(CCCCN2CCN(c3ncccn3)CC2)C1=O (stereo not given) .
Output: < 6.00

* * *

experimental.system: UniProtKB P61169
measurement.notes: Binding affinity at Dopamine receptor D2 in rat corpus striatum by displacing [3H]-spiperone.
pIC50: −log10 of the molar value.
Reported pIC50 is given for each of the following compounds.

Below, each entry is followed by its recorded pIC50 result.
compound: O=C1c2ccc([N+](=O)[O-])cc2C(=O)N1CCCCN1CCN(c2ncccn2)CC1
measured.metric: pIC50
observed.value: < 6.00

compound: Cl.O=C1CC2(CCc3ccccc3C2)C(=O)N1CCCCN1CCN(c2ncccn2)CC1 (configuration not stated)
measured.metric: pIC50
observed.value: 6.27

compound: CC1(c2ccc(F)cc2)CC(=O)N(CCCN2CCN(c3ncccn3)CC2)C1=O (configuration not stated)
measured.metric: pIC50
observed.value: < 6.00

compound: O=C1c2cc(Cl)c(Cl)cc2C(=O)N1CCCCN1CCN(c2ncccn2)CC1
measured.metric: pIC50
observed.value: < 6.00

compound: Cl.O=C1CC2(CCc3ccccc32)C(=O)N1CCCCN1CCN(c2ncccn2)CC1 (configuration not stated)
measured.metric: pIC50
observed.value: 5.89

Input: Specify measured pIC50 for CC1(c2ccc(F)cc2)CC(=O)N(CCN2CCN(c3ncccn3)CC2)C1=O (configuration not stated) .
Output: < 6.00

Input: Specify measured pIC50 for N#Cc1cccnc1N1CCN(CCCCN2C(=O)CC(c3ccccc3)(c3ccccc3)C2=O)CC1 .
Output: < 6.00

Input: Specify measured pIC50 for O=C1CC(c2ccccc2)(c2ccccc2)C(=O)N1CCCCN1CCN(c2nsc3ccccc23)CC1 .
Output: 6.64

Input: Specify measured pIC50 for CSc1nc(N2CCN(CCCCN3C(=O)c4ccccc4C3=O)CC2)ncc1F.Cl .
Output: < 6.00

Input: Specify measured pIC50 for O=C1c2c(Cl)c(Cl)c(Cl)c(Cl)c2C(=O)N1CCCCN1CCN(c2ncccn2)CC1 .
Output: < 6.00

Input: Specify measured pIC50 for O=C1c2ccccc2C(=O)N1CCCCN1CCN(c2ncccn2)CC1 .
Output: < 6.00

Input: Specify measured pIC50 for CC1(c2ccc(F)cc2)CC(=O)N(CCCCN2CCN(c3nsc4ccccc34)CC2)C1=O (configuration not stated) .
Output: 6.92

src = ChEMBL document CHEMBL1123465
